system: HeLa S3; test: XTT cytotoxicity assay, HeLa S3; type: cell-based; conditions: Homo sapiens, HeLa S3; 72 h incubation; read-out: XTT, IC50 HeLa S3
observable: pIC50
Would you please state pIC50, meaning minus log10 of the concentration in mol/L, as a bare number?

Q: Recorded pIC50 of COc1ncnc2c1c(-c1cccs1)cn2[C@@H]1O[C@H](CO)[C@@H](O)[C@H]1O , please.
Result: 5.75

Q: Now consider COc1ncnc2c1c(I)cn2[C@@H]1O[C@H](CO)[C@@H](O)[C@H]1O [Compound 1h, reference compound] and answer again.
Result: 4.84

Q: Now consider CSc1ncnc2c1c(I)cn2[C@@H]1O[C@H](CO)[C@@H](O)[C@H]1O and answer again.
Result: 6.60

Q: Now consider CSc1ncnc2c1c(-c1ccoc1)cn2[C@@H]1O[C@H](CO)[C@@H](O)[C@H]1O and answer again.
Result: 5.27

====

Assignment: determine reported pIC50 for the given molecules.
tested on: HL60; experiment: XTT cytotoxicity assay, HL-60; assay type: cell-based; conditions: Homo sapiens, HL-60; 72 h incubation; read-out: XTT, IC50 HL60
pIC50: −log10 of the molar value.

Q: Recorded pIC50 of Cc1ncnc2c1c(-c1ccccc1)cn2[C@@H]1O[C@H](CO)[C@@H](O)[C@H]1O , please.
Result: < 4.70

Q: Now consider Cc1ncnc2c1c(-c1ccoc1)cn2[C@@H]1O[C@H](CO)[C@@H](O)[C@H]1O and answer again.
Result: < 4.82

Q: Now consider CSc1ncnc2c1c(-c1ccccc1)cn2[C@@H]1O[C@H](CO)[C@@H](O)[C@H]1O and answer again.
Result: < 4.70

Q: Now consider CNc1ncnc2c1c(-c1ccccc1)cn2[C@@H]1O[C@H](CO)[C@@H](O)[C@H]1O and answer again.
Result: < 4.70

====

system: K562; assay: Cytostatic/cytotoxic MTT assay, K562; assay type: cell-based; settings: Homo sapiens, K562; 72 h incubation; read-out: MTT, IC50 K562
Assignment: determine reported IC50 for the given compounds.

Q: Recorded IC50 of CN(C)c1ncnc2c1c(-c1cccs1)cn2[C@@H]1O[C@H](CO)[C@@H](O)[C@H]1O [Compound 4c] , please.
Result: > 20 µM

Q: Now consider CN(C)c1ncnc2c1c(-c1ccccc1)cn2[C@@H]1O[C@H](CO)[C@@H](O)[C@H]1O [Compound 4e] and answer again.
Result: > 20 µM

Q: Now consider COc1ncnc2c1c(-c1ccccc1)cn2[C@@H]1O[C@H](CO)[C@@H](O)[C@H]1O [Compound 1e] and answer again.
Result: > 20 µM

Q: Now consider CNc1ncnc2c1c(I)cn2[C@@H]1O[C@H](CO)[C@@H](O)[C@H]1O [Compound 3h] and answer again.
Result: > 100 µM

====

tested on: BJ; assay: Cytostatic/cytotoxic MTT assay, BJ fibroblasts; type: cell-based; conditions: Homo sapiens, non-malignant fibroblasts, 72 h, read-out: MTT, IC50 BJ
pIC50: −log10 of the molar value.
observable: pIC50

Q: Recorded pIC50 of CN(C)c1ncnc2c1c(-c1ccccc1)cn2[C@@H]1O[C@H](CO)[C@@H](O)[C@H]1O [Compound 4e] , please.
Result: < 4.00

Q: Now consider CN(C)c1ncnc2c1c(-c1ccsc1)cn2[C@@H]1O[C@H](CO)[C@@H](O)[C@H]1O [Compound 4d] and answer again.
Result: < 4.00

Q: Now consider COc1ncnc2c1ccn2[C@@H]1O[C@H](CO)[C@@H](O)[C@H]1O [RC1, reference compound] and answer again.
Result: < 4.00
